# Tested on: Saccharomyces cerevisiae;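 also: PSI is a weighted mean of sequencing reads over stability bins, variants kept only with over 10 reads, mCherry proximal and sfGFP distal, peptide attached via GGGS linker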
# Measurement Description: protein stability index of tFT-peptide fusion (C-terminal peptide) (PSI (0-1 scale)); higher = more stable (slower turnover)
# Conditions: genetic background: doa10 deletion; temperature: 30 C
Assign 1 to entries whose protein stability index meets or exceeds 0.3; assign 0 to the rest.

Below, 10 sequences whose answers are already recorded.
residue_codes=SFVCFSYYIVNI answer_label=1
residue_codes=SGFLNVGYLWVC answer_label=0
residue_codes=GHHLRVRVILTA answer_label=0
residue_codes=VSGSFRVCFRVW answer_label=1
residue_codes=VCLRICLVTLMM answer_label=0
residue_codes=LFFFSFSFLFFL answer_label=1
residue_codes=YLRVRRPGSALV answer_label=1
residue_codes=LVSVLLLFWFLF answer_label=1
residue_codes=TVRVWPRNLWFS answer_label=0
residue_codes=VYRVTGSWLMWV answer_label=1

Kindly determine if protein stability index recorded for ALRGLWFPFSCL is above or exactly 0.3.
0

protein stability index >= 0.3 for KFRGMTLRNKVC ?
0

Confirm if protein stability index reported for the sequence PAPANRPTPRPV is 0.3 or above.
1

Hi, just wondering whether MWFFFICYFLSV shows protein stability index of 0.3 or higher.
0

Would you say FFGFYLKFVWCG shows protein stability index at minimum 0.3?
0

Form field: protein stability index at least 0.3? Entry: LGGVEDRWRTAT
0

# check: protein stability index of GGYCQMFFLYFR is greater than or equal to 0.3
1

Threshold query (protein stability index >= 0.3) on FLLYRFSLVGCF
0

Could you please find out whether GICLVLVSDIWI has protein stability index that meets 0.3 or exceeds it?
1
